Values from ChEMBL document CHEMBL5113430

experimental target: UniProtKB P21397
Sequence (P21397 whole entry): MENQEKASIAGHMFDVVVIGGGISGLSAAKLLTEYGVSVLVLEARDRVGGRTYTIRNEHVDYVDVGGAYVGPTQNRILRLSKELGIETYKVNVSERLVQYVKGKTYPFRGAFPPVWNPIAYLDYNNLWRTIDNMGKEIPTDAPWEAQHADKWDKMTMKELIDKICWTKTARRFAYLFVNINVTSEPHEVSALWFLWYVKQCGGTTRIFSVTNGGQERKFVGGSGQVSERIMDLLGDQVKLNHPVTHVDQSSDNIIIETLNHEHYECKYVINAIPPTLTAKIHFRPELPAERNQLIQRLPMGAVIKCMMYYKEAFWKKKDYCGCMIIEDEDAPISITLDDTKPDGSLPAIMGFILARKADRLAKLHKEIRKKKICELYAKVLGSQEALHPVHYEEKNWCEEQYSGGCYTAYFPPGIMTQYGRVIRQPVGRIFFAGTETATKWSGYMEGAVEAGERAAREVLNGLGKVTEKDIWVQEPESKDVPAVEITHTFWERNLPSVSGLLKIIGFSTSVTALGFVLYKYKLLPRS
assay name: Inhibition of recombinant MAO-A (unknown origin) expressed in baculovirus infected BTI cells assessed as reduction in 4-hydroxyquinoline level using kynuramine as a substrate at 1 uM incubated for 20 mins by discontinuous fluorimetric assay relative to control
The label depends only on inhibition at 1 µM: label 1 if it is at least 10%, label 0 if it is smaller.

State whether the measured inhibition at 1 µM reaches 10%, counting equality as reaching it, for `CC1(C)COc2cc3ccccc3cc2C1=O`
label 1

Hi, just wondering whether C#CCN(C)CCCOc1ccc(Cl)cc1Cl [CLORGILINE] shows inhibition at 1 µM of 10% or higher.
label 1

Is inhibition at 1 µM for COc1cccc2c1OCC(C)(C)C2N (stereo not drawn) at or above 10%?
label 0

Does inhibition at 1 µM meet or surpass 10% for COc1cccc2c1C(O)C(C)(C)CO2 (stereo not drawn) ?
label 1

Hello, I need to know if CC1(C)COc2ccc3ccccc3c2C1N (stereo not drawn) has measured inhibition at 1 µM not below 10%. Thanks!
label 1

Could you tell me if the measured inhibition at 1 µM of `CC1(C)COc2c(ccc3cccnc23)C1=O` reaches 10% or more?
label 1

Kindly determine if inhibition at 1 µM recorded for `COc1cccc2c1C(=O)C(C)(C)CO2` is above or exactly 10%.
label 1

Would you say `CC1(C)COc2ccc3ccccc3c2C1=O` shows inhibition at 1 µM at minimum 10%?
label 1

hey, is inhibition at 1 µM for this one >= 10%? CC1(C)COc2ccccc2C1O (stereo not drawn)
label 1

Does inhibition at 1 µM meet or surpass 10% for C#CCN(Cc1ccccc1)C1c2ccccc2OCC1(C)C (stereo not drawn) ?
label 0

Check the entry C[C@H](NCc1ccc(OCc2cccc(F)c2)cc1)C(N)=O [SAFINAMIDE] : does inhibition at 1 µM equal or exceed 10%?
label 0

Decide: is the reported value of inhibition at 1 µM for `CC1(C)COc2ccccc2C1=O` equal to or greater than 10%?
label 0

Form field: inhibition at 1 µM at least 10%? Entry: C#CCNC1c2cccc(OC)c2OCC1(C)C (stereo not drawn)
label 0
